Sourced from patent US20220323406A1

Test system: ENR+CD organoids (ISC to Paneth cell differentiation)
Test: Primary screen: basal (non-stimulated) lysozyme secretion LYZ.NS, 2.5-D 384-well ENR+CD organoid differentiation
Type: cell-based, mouse
Details: primary screen, standard z score, dose 0.40 uM
Source text: High-throughput screening.
Counter-ions that a name gives are not always drawn.
Answer each item with its documented Z.LYZ.NS.
Give bare numbers.

Use these answered entries as a reference point.
[in] I have this molecule here, COc1ccc(C[C@@H](C)NC[C@H](O)c2ccc(O)c(NC=O)c2)cc1.COc1ccc(C[C@@H](C)NC[C@H](O)c2ccc(O)c(NC=O)c2)cc1.O=C(O)/C=C/C(=O)O [Formoterol Hemifumarate] , and I need its recorded Z.LYZ.NS.
[out] 0.638

[in] Name the recorded Z.LYZ.NS for Cc1nc(C(=O)NCC(=O)O)c(O)c2ccc(Oc3ccccc3)cc12 [FG-4592] .
[out] 1.484

[in] Which Z.LYZ.NS reading was recorded for the molecule CS(=O)(=O)N1CCN(Cc2cc3nc(-c4cccc5[nH]ncc45)nc(N4CCOCC4)c3s2)CC1 [GDC-0941] ?
[out] −0.112

[in] Please give the measured Z.LYZ.NS for this molecule: Cc1ccc([C@@H]2O[C@H](CO)[C@@H](O)[C@H](O)[C@H]2O)cc1Cc1ccc(-c2ccc(F)cc2)s1 [Canagliflozin]
[out] −0.398

[in] Consider the molecule Cc1ccc(S(=O)(=O)NC(=O)NN2CC3CCCC3C2)cc1 (stereo not shown) [Gliclazide] and give its measured Z.LYZ.NS.
[out] 0.278

[in] Find the recorded Z.LYZ.NS belonging to CNC(=O)c1ccc(N2C(=S)N(c3ccc(C#N)c(C(F)(F)F)c3)C(=O)C2(C)C)cc1F [Enzalutamide (MDV3100)] and report it.
[out] 1.446

[in] Fill blank: measured Z.LYZ.NS of the molecule CC(C)(C)c1nc(-c2cccc(NS(=O)(=O)c3c(F)cccc3F)c2F)c(-c2ccnc(N)n2)s1 [Dabrafenib (GSK2118436)] is ____.
[out] 0.427

[in] May I ask what Z.LYZ.NS has been recorded for CCNC(=O)[C@H]1O[C@@H](n2cnc3c(N)nc(NCCc4ccc(CCC(=O)O)cc4)nc32)[C@H](O)[C@@H]1O [CGS 21680 HCl] ?
[out] 1.452

[in] I'd like to know its Z.LYZ.NS. The molecule in question is C=C1C(=O)O[C@@H]2/C=C(\C)CC/C=C(\C)CC[C@@H]12 [Costunolide]
[out] 0.585

Now take the following molecule into account.
[in] Recorded Z.LYZ.NS of CC(C)Oc1ccc(-c2cnc3c(-c4ccnc5ccccc45)cnn3c2)cc1 [DMH1] , please.
[out] 0.231
